The measured values listed here are drawn from ChEMBL document CHEMBL1201862.

System: UO-31
Experiment: NCI tumour cell line growth inhibition, 48 h
The source made the active and inactive calls. Rule as the data show it: active = GI50 up to about 1.1 µM and inactive = higher.
Possible outcomes: TRUE for active, FALSE for inactive

# COMPOUND, CLASSIFICATION
rows = [
    ("CC(C)OC(=S)Nc1ccc(Cl)c(/C=N/OC(C)(C)C)c1", "FALSE"),
    ("CC(=O)OCCOCNC(=S)N/N=C/c1ccc([N+](=O)[O-])o1", "FALSE"),
    ("O=C(CC1Sc2ccccc2NC1=O)Nc1cc(Cl)ccc1Cl (stereo unspecified)", "FALSE"),
    ("C#CC1NC(=O)C1N(CC)CC (stereo unspecified)", "FALSE"),
    ("C[C@]12CC[C@H]3[C@@H](CCC4=CC(=O)CC[C@@H]43)[C@@H]1CC[C@@H]2OC1(O)C(=O)c2ccccc2C1=O", "FALSE"),
    ("C/C1=C/C2=CC(C)C[C@@H]2C(=O)[C@]2(C)C(=O)CC(C)(C)[C@H]2CC1=O (stereo partly specified)", "FALSE"),
    ("CCCCCCc1cc2cc(C(=O)Nc3ccccc3F)c(=N)oc2cc1O", "FALSE"),
    ("CC(C)(C)N/N=C(\\C(=O)Nc1nnc(S)[nH]1)C1C(=O)Nc2ccccc2[S+]1[O-] (stereo unspecified)", "FALSE"),
    ("S=C(N/N=C(/c1ccccc1)c1ccccn1)Nc1ccccc1Cl", "TRUE"),
    ("C=C(CCOC)CCC1CCCCC(CN(C)C)C1=O (stereo unspecified)", "FALSE"),
    ("C=CCC1(C#N)C(=S)NC2=C(C(=O)CC(C)(C)C2)C1c1ccccc1 (stereo unspecified)", "FALSE"),
    ("O=C1OC2(OC2c2ccccc2)c2ccccc21 (stereo unspecified)", "FALSE"),
    ("O=C1c2ccccc2-c2ccccc2C(=O)C1(Br)Br", "FALSE"),
    ("COC1CCC(O)C(/C=C/[N+](=O)[O-])C1 (stereo unspecified)", "FALSE"),
    ("CC1(C)N(OC2CCCCO2)C(c2ccccc2)C(c2ccccc2)=[N+]1[O-] (stereo unspecified)", "FALSE"),
    ("Nc1ccc(S(=O)(=O)Nc2nc3ccccc3nc2N2CCCCC2)cc1", "FALSE"),
    ("O=C1C[C@@H](c2ccccc2)NCCCCN(O)CCCN1", "FALSE"),
    ("CN(C(=O)C12C3(C(=O)C(C)(C)C)C4C5(C#N)C3C1(C(=O)C(C)(C)C)C5C42C(=O)C(C)(C)C)C(C)(C)C (stereo unspecified)", "FALSE"),
    ("COc1ccccc1NCc1cccc2c(=O)c3ccc(Cl)cc3oc12", "FALSE"),
    ("Cc1c2c(C(N)=O)nccc2c(C)c2c1c1ccccc1n2Cc1ccccc1", "FALSE"),
    ("COC(=O)c1sc2c(c1C(=O)OC)/C(=N/C(C)(C)C)S/C2=N\\C(C)(C)C", "TRUE"),
    ("COc1ccc(CC(N)=O)cc1OC", "FALSE"),
    ("CCOc1ccccc1NC(=O)CC1C(=O)Nc2ccccc2[S+]1[O-] (stereo unspecified)", "FALSE"),
    ("Nc1cc2ncnc(Nc3cccc(Br)c3)c2cn1", "FALSE"),
    ("Cc1nc2cccc(F)c2c(=O)n1-c1nnc(C(F)(F)F)s1", "FALSE"),
    ("O=C(OCC(OC(=O)c1ccccc1)C1CC(C2(O)CCCCC2)C(=O)O1)c1ccccc1 (stereo unspecified)", "TRUE"),
    ("CC(/C=C/C(=O)c1sc(-n2nc(-c3ccccc3)cc2-c2ccccc2)nc1C)=C\\c1ccccc1", "FALSE"),
    ("ClCCNCCNCCCl.ClCCNCCNCCCl.[O-][Cl+3]([O-])([O-])O", "FALSE"),
    ("Nc1nccc(NCC2(CO)CC(CCc3ccccc3)C2)n1 (stereo unspecified)", "FALSE"),
    ("CN(C)c1ccc(/C=C(\\NC(=O)c2ccccc2)C2NC(Cc3c[nH]c4ccccc34)C(=O)O2)cc1 (stereo unspecified)", "FALSE"),
    ("COc1ccc([C@H](NC(=O)c2ccccc2)[C@@H](O)C(=O)O[C@H]2C[C@@]3(O)C(OC(=O)c4ccccc4)C4[C@](C)(C(=O)[C@H](OC(C)=O)C(=C2C)C3(C)C)[C@@H](O)C[C@H]2OC[C@@]42OC(C)=O)cc1 (stereo partly specified)", "TRUE"),
    ("CC(=O)OC[C@H]1On2nnnc2[C@H](OC(C)=O)[C@@H](OC(C)=O)[C@@H]1OC(C)=O", "FALSE"),
    ("CC(C)(C)OC(=O)N1CC(CCl)c2ccc(O)cc21 (stereo unspecified)", "FALSE"),
    ("O=C(c1cc2c(C(F)(F)F)onc2c2ccccc12)C(F)(F)F", "FALSE"),
    ("c1csc(-c2csc(-c3ccsc3)c2)c1", "FALSE"),
    ("CC(=O)OCC1OC(n2c(N)c(C#N)c(-c3ccc(C)cc3)c(C#N)c2=S)C(OC(C)=O)C(OC(C)=O)C1OC(C)=O (stereo unspecified)", "FALSE"),
]
